test system: Saccharomyces cerevisiae BY4741 SeMeCo community; assay: z-score of subpopulation abundance vs DMSO median, subpopulation auxotrophic for HU; higher = larger share of this subpopulation than in DMSO controls; conditions: 10 µM; 24 h; SM minimal medium; subpopulation (auxotrophy): HU
Where a name gives a salt, the structure may show the parent alone.
Grouping rule (z-score of subpopulation abundance): one = under 0.2, two = from 0.2 up to 0.8, three = 0.8 and over

Past entries and their recorded results:
1) CN[C@H]1C(=O)N[C@@H]2Cc3ccc(cc3)Oc3cc4cc(c3O[C@@H]3O[C@H](C(=O)O)[C@@H](O)[C@H](O)[C@H]3NC(=O)CCCCCCCCC(C)C)Oc3ccc(cc3Cl)[C@@H](O)[C@@H]3NC(=O)[C@H](NC(=O)[C@@H]4NC(=O)[C@@H](NC2=O)c2cc(cc(O)c2Cl)Oc2cc1ccc2O)c1ccc(O)c(c1)-c1c(O[C@H]2O[C@H](CO)[C@@H](O)[C@H](O)[C@@H]2O)cc(O)cc1[C@@H](C(=O)NCCCN(C)C)NC3=O: three
2) O=C(CCCN1CCN(c2ccccn2)CC1)c1ccc(F)cc1: one
3) N#Cc1ccc(Oc2ccc3c(c2)COB3O)cc1: three
4) CC1(C)S[C@@H]2[C@H](NC(=O)[C@H](NC(=O)N3CCNC3=O)c3ccccc3)C(=O)N2[C@H]1C(=O)O [Azlocillin sodium salt]: one
5) C[C@]12CC[C@@H]3c4ccc(O)cc4CC[C@H]3[C@@H]1CC[C@@H]2OC(=O)CCC1CCCC1 [Estradiol Cypionate]: two

Request: Categorize the following entry: "CC1=CC[C@@](O)(C(C)C)CC1"
Response: two

Request: Categorize the following entry: COc1ccc(CCN(C)CCCC(C#N)(c2ccc(OC)c(OC)c2)C(C)C)cc1OC (centres undefined) [Verapamil HCl]
Response: two

Request: Categorize the following entry: COCCCOc1ccnc(C[S+]([O-])c2nc3ccccc3[nH]2)c1C (centres undefined)
Response: three

Request: Categorize the following entry: CCC1(C)CC(=O)NC1=O (centres undefined) [Ethosuximide]
Response: one

Request: Categorize the following entry: "C(=C\c1ccccc1)/CN1CCN(C(c2ccccc2)c2ccccc2)CC1"
Response: three

Request: Categorize the following entry: O=C(O)C1=C(CSc2nnnn2CS(=O)(=O)O)CS[C@@H]2[C@H](NC(=O)[C@H](O)c3ccccc3)C(=O)N12 [Cefonicid sodium]
Response: two

Cited source for all entries: the supplement of paper PMC8975748
